Numbers sourced from paper PMC3154276.

Molecular target: SF-PhoQc (Shigella flexneri, UniProt Q83RR1)
Construct: The amplified DNA segment encodes PhoQ HK amino acids 251–486; made in house; host or cells: E. coli JM109
Sequence (Q83RR1 251-486): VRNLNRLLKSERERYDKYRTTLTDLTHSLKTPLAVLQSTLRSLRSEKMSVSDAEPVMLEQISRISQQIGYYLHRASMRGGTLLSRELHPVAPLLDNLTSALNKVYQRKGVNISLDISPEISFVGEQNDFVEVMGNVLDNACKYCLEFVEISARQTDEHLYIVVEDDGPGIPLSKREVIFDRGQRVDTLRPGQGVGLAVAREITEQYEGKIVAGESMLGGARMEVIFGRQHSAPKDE
Experiment: Pyrophosphate Reagent coupled enzymatic activity assay of SF-PhoQc
Assay type: biochemical, S. flexneri 2a 301
// values below are reported IC50
Number only, in µM; omit the unit.

smiles_data=O=C(O)c1cc(-c2ccc(-c3ccccc3Cl)o2)nc2ccc3ccccc3c12 parameter_measured=IC50 measure_unit=µM value_observed=27.8

State the recorded IC50 for this entry: `O=C(Nc1ccc(C2(c3cccc(NC(=O)c4cccc5ccccc45)c3)c3ccccc3C(=O)c3ccccc32)cc1)c1ccc2ccccc2c1`
12

Next compound: `CCOc1ccccc1-c1cc(C(=O)N/N=C/c2ccc(OCc3ccccc3)c(OC)c2)c2ccccc2n1`
57

Next compound: `O=C(O)c1ccc(Cl)c(-c2ccc(/C=N/NC(=O)c3ccc(Br)cc3)o2)c1`
27.8
